Literature compilation of IC50 measurements on Coagulation factor XI (Homo sapiens, UniProt P03951).
Write it as a number; the unit nM goes unstated.

Provide the reported IC50 (system: Coagulation factor XI (Homo sapiens, UniProt P03951)) for COc1ccc(-n2cnnn2)c(-c2cncc(C(=O)Nc3cnn(C(C)c4cnc(N5CCC5)nc4)c3)n2)c1 (single isomer, unassigned)
730

Name the recorded IC50 of O=C(O)c1ccc(NC(=O)C(CC2CC2)c2ccc(-c3c(C(F)(F)F)ccc(Cl)c3F)c[n+]2[O-])cc1 (single isomer, unassigned) , assay system Coagulation factor XI (Homo sapiens, UniProt P03951).
2.8

Given CCC(c1c(C)noc1C)n1cc(C(=O)N2CCC[C@@]3(C2)OC(=O)Nc2ccc(Cl)c(F)c23)cn1 (single isomer, unassigned) , report its IC50 on Coagulation factor XI (Homo sapiens, UniProt P03951).
4670
